Target: UniProt P49841
Assay: GSK3β kinase assay (Caliper LabChip, fluoresceinated peptide substrate)
Type: biochemical
Details: first value of the cell; 250 pM enzyme, 20 uM ATP, 20 hours at room temperature; read-out: GSK3β/α (nM): GSK3β IC50
observed.property: IC50 (nM)
Numbers only; they are read as nM.

Please give the documented IC50 of CC[C@@]1(c2cc(Cl)ncc2NC(=O)c2ccnc(Nc3ccc(C(F)(F)F)cn3)c2)OC[C@@H](C(F)(F)F)O1 [Example 85] 64

Please give the documented IC50 of Cc1cc(-c2ccccc2)c(NC(=O)c2ccnc(Nc3ccc(C(F)(F)F)cn3)c2)cn1 [Example 68] 12

Please give the documented IC50 of O=C(Nc1cnc(F)cc1C1(C2CC2)OCCO1)c1ccnc(Nc2ccc(C(F)(F)F)cn2)c1 [Example 94] 0.06

Please give the documented IC50 of CC1(c2cc(Cl)ncc2NC(=O)c2ccnc(Nc3ccc(C(F)(F)F)cn3)c2)OCCO1 [Example 76] 0.32

Please give the documented IC50 of O=C(Nc1cnccc1C1CCCCO1)c1ccnc(Nc2ccc(C(F)(F)F)cn2)c1 (stereo not drawn) [Example 41] 13

Please give the documented IC50 of N#Cc1cccc(Nc2cc(C(=O)Nc3cncc(-c4cccc(F)c4C#N)c3)ccn2)n1 [Example 166] 0.91

Please give the documented IC50 of O=C(Nc1cnccc1-c1ccccc1)c1ccnc(Nc2ccc(Br)cn2)c1 [Example 63] 9.3

Please give the documented IC50 of COc1ccc(-c2ccncc2NC(=O)c2ccnc(Nc3ccc(C(F)(F)F)cn3)c2)c(F)c1 [Example 55] 3.2

Please give the documented IC50 of O=C(Nc1cncc(-c2cccc(F)c2F)c1)c1ccnc(Nc2ccc(C(F)(F)F)cn2)c1 [Example 130] 42

Please give the documented IC50 of O=C(Nc1cnccc1OCC(F)F)c1ccnc(Nc2ccc(C(F)(F)F)cn2)c1 [Example 42] 0.49

Please give the documented IC50 of CC(C)CSc1ccncc1NC(=O)c1ccnc(Nc2ccc(C(F)(F)F)cn2)c1 [Example 175] 1.1

Please give the documented IC50 of O=C(Nc1cnccc1-c1ccccc1)c1ccnc(Nc2ccc3ccccc3n2)c1 [Example 116] 7.8

Please give the documented IC50 of O=C(Nc1cnccc1S(=O)(=O)c1ccccc1)c1ccnc(Nc2ccc(C(F)(F)F)cn2)c1 [Example 183] 2.2

Please give the documented IC50 of O=C(Nc1cncc(OCC2CC2)c1)c1ccnc(Nc2cccc(C(F)(F)F)n2)c1 [Example 124] 9.4

Please give the documented IC50 of CCOc1ccncc1NC(=O)c1ccnc(Nc2ccc(C#N)cn2)c1 [Example 16] 1.1

Please give the documented IC50 of O=C(Nc1cnccc1OCCN1CCCC1)c1ccnc(Nc2ccc(C(F)(F)F)cn2)c1 [Example 46] 150

Please give the documented IC50 of CCC1(c2cc(Cl)ncc2NC(=O)c2ccnc(Nc3ccc(C(F)(F)F)cn3)c2)OCCO1 [Example 79] 0.31

Please give the documented IC50 of CC(O)(c1cc(Cl)ncc1NC(=O)c1ccnc(Nc2ccc(C(F)(F)F)cn2)c1)C1CC1 (stereo not drawn) [Example 98] 3.7

Please give the documented IC50 of O=C(Nc1cncc(-c2cc(F)ccc2F)c1)c1ccnc(Nc2cccc(C(F)(F)F)n2)c1 [Example 146] 5.1

Please give the documented IC50 of CCC(O)(c1cc(Cl)ncc1NC(=O)c1ccnc(Nc2ccc(C(F)(F)F)cn2)c1)C1CC1 (stereo not drawn) [Example 101] 11

Please give the documented IC50 of O=C(Nc1cncnc1Br)c1ccnc(Nc2ccc(C(F)(F)F)cn2)c1 [Example 192] 23

Please give the documented IC50 of O=C(Nc1cnccc1OCC(F)(F)F)c1ccnc(Nc2ccc(Cl)cn2)c1 [Example 31] 0.74

Please give the documented IC50 of O=C(Nc1cnccc1C1OCCO1)c1ccnc(Nc2ccc(C(F)(F)F)cn2)c1 [Example 40] 23

Please give the documented IC50 of O=C(Nc1cnc(Cl)cc1-c1ccccc1)c1ccnc(Nc2ccc(C(F)(F)F)cn2)c1 [Example 66] 61

Please give the documented IC50 of CC[C@@]1(c2cc(Cl)ncc2NC(=O)c2ccnc(Nc3ccc(C(F)(F)F)cn3)c2)OC[C@H](C(F)(F)F)O1 [Example 86] 12

Please give the documented IC50 of O=C(Nc1cncnc1-c1ccccc1)c1ccnc(Nc2ccc(C(F)(F)F)cn2)c1 [Example 193] 3.6

Please give the documented IC50 of CCCS(=O)(=O)c1ccncc1NC(=O)c1ccnc(Nc2ccc(C(F)(F)F)cn2)c1 [Example 182] 5.2

Please give the documented IC50 of CCCC(O)c1cc(Cl)ncc1NC(=O)c1ccnc(Nc2ccc(C(F)(F)F)cn2)c1 (stereo not drawn) [Example 100] 11

Please give the documented IC50 of CC(C)C(O)(c1cc(Cl)ncc1NC(=O)c1ccnc(Nc2ccc(C(F)(F)F)cn2)c1)C1CC1 (stereo not drawn) [Example 102] 43

Please give the documented IC50 of O=C(Nc1cnccc1C1=CCCCO1)c1ccnc(Nc2ccc(C(F)(F)F)cn2)c1 [Example 39] 1.2

Please give the documented IC50 of CCOc1ccncc1NC(=O)c1ccnc(Nc2ccc(C)cn2)c1 [Example 14] 0.47

Please give the documented IC50 of O=C(Nc1cnccc1OCC(F)(F)F)c1cc(Nc2ccc(C(F)(F)F)cn2)ncc1F [Example 168] 1.5

Please give the documented IC50 of O=C(Nc1cnccc1OCCN1CCOCC1)c1ccnc(Nc2ccc(C(F)(F)F)cn2)c1 [Example 47] 18

* * *

Target: GSK3β (Homo sapiens)
Sequence (P49841 whole entry, species assumed): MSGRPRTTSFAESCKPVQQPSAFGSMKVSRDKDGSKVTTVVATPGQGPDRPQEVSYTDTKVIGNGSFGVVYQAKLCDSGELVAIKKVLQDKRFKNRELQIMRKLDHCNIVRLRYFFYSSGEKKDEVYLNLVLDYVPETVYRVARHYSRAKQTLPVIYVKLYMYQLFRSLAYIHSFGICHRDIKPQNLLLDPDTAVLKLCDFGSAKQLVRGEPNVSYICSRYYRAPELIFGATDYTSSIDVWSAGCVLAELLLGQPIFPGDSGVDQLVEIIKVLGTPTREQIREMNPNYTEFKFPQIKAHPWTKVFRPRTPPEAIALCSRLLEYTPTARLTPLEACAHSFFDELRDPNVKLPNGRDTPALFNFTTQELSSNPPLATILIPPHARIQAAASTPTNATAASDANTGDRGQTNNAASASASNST
Test: GSK3β kinase assay (Caliper LabChip, fluoresceinated peptide substrate)
Type: biochemical
Settings: first value of the cell; 250 pM enzyme, 20 uM ATP, 20 hours at room temperature; read-out: GSK3β/α (nM): GSK3β IC50
Can you tell me IC50 for the items I'm about to list?
Numbers only; they are read as nM.

Please give the documented IC50 of O=C(Nc1cncc(-c2ccccc2)c1)c1ccnc(Nc2cccc(C(F)(F)F)n2)c1 10

Please give the documented IC50 of O=C(Nc1cnncc1Br)c1ccnc(Nc2ccc(C(F)(F)F)cn2)c1 70

Please give the documented IC50 of O=C(Nc1cnccc1Sc1ccccc1)c1ccnc(Nc2ccc(C(F)(F)F)cn2)c1 5.6

Please give the documented IC50 of N#Cc1ccc(Nc2cc(C(=O)Nc3cnccc3-c3ccc(F)cc3F)ccn2)nc1 1.3

* * *

Can you tell me IC50 for the items I'm about to list?
Molecular target: GSK3α (Homo sapiens)
Sequence (P49840 whole entry, species assumed): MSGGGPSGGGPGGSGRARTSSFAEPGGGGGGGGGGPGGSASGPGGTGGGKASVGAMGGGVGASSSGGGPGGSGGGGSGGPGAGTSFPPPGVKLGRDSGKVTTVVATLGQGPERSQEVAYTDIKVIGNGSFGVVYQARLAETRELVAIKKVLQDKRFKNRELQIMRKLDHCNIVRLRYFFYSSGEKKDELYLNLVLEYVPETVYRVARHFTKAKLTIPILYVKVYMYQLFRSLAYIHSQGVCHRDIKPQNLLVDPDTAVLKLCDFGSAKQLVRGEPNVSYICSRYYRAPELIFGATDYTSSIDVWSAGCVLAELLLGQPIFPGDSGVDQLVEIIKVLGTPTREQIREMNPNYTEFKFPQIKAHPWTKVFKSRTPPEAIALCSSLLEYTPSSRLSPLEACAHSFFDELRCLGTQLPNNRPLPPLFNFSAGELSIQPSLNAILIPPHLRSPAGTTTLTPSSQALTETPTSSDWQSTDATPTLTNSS
Assay: GSK3α kinase assay (Caliper LabChip, fluoresceinated peptide substrate)
Assay type: biochemical
Numbers only; they are read as nM.

Report its IC50 with GSK3α (Homo sapiens) as the test system: O=C(Nc1cnccc1OCCN1CCOCC1)c1ccnc(Nc2ccc(C(F)(F)F)cn2)c1 5.6

Report its IC50 with GSK3α (Homo sapiens) as the test system: O=C(Nc1cnccc1OCCN1CCCC1)c1ccnc(Nc2ccc(C(F)(F)F)cn2)c1 75

Report its IC50 with GSK3α (Homo sapiens) as the test system: CC[C@@]1(c2cc(Cl)ncc2NC(=O)c2ccnc(Nc3ccc(C(F)(F)F)cn3)c2)OC[C@H](C)O1 1.7

Report its IC50 with GSK3α (Homo sapiens) as the test system: N#Cc1cccc(Nc2cc(C(=O)Nc3cncc(-c4cccc(F)c4C#N)c3)ccn2)n1 0.28

Report its IC50 with GSK3α (Homo sapiens) as the test system: CC(C)(C)[S+]([O-])c1ccncc1NC(=O)c1ccnc(Nc2ccc(C(F)(F)F)cn2)c1 (stereo not drawn) 1.2

Report its IC50 with GSK3α (Homo sapiens) as the test system: O=C(Nc1cnsc1-c1ccccc1)c1ccnc(Nc2ccc(C(F)(F)F)cn2)c1 1.7

Report its IC50 with GSK3α (Homo sapiens) as the test system: O=C(Nc1cnc(F)cc1-c1ccccc1)c1ccnc(Nc2ccc(C(F)(F)F)cn2)c1 4

Report its IC50 with GSK3α (Homo sapiens) as the test system: CC(C)(C)COc1cc(F)ncc1NC(=O)c1ccnc(Nc2ccc(C(F)(F)F)cn2)c1 2.4

Report its IC50 with GSK3α (Homo sapiens) as the test system: O=C(Nc1cnc(Cl)cc1[S+]([O-])C1CC1)c1ccnc(Nc2ccc(C(F)(F)F)cn2)c1 (stereo not drawn) 7.6

Report its IC50 with GSK3α (Homo sapiens) as the test system: O=C(Nc1cnccc1-c1ccc(F)cc1C(F)(F)F)c1ccnc(Nc2ccc(C(F)(F)F)cn2)c1 0.57

Report its IC50 with GSK3α (Homo sapiens) as the test system: N#Cc1ccc(-c2cncc(NC(=O)c3ccnc(Nc4cccc(C#N)n4)c3)c2)cc1 2.4

Report its IC50 with GSK3α (Homo sapiens) as the test system: Cn1ncc(NC(=O)c2ccnc(Nc3ccc(C(F)(F)F)cn3)c2)c1C(C)(O)C1CC1 (stereo not drawn) 0.21

Report its IC50 with GSK3α (Homo sapiens) as the test system: O=C(Nc1cncc(-c2cc(F)ccc2F)c1)c1ccnc(Nc2cccc(C(F)(F)F)n2)c1 3.2

Report its IC50 with GSK3α (Homo sapiens) as the test system: O=C(Nc1cnccc1-c1ccc(F)cc1)c1ccnc(Nc2cccc(Cl)n2)c1 1.9

Report its IC50 with GSK3α (Homo sapiens) as the test system: O=C(Nc1cnc(Cl)cc1C(O)C1CC1)c1ccnc(Nc2ccc(C(F)(F)F)cn2)c1 (stereo not drawn) 0.78

Report its IC50 with GSK3α (Homo sapiens) as the test system: O=C(Nc1cncc(-c2ccccc2F)c1)c1ccnc(Nc2ccc(C(F)(F)F)cn2)c1 6

Report its IC50 with GSK3α (Homo sapiens) as the test system: CN(C)S(=O)(=O)c1ccc(Nc2cc(C(=O)Nc3cnccc3OCC(F)(F)F)ccn2)nc1 0.31

Report its IC50 with GSK3α (Homo sapiens) as the test system: CS(=O)(=O)c1ccncc1NC(=O)c1ccnc(Nc2ccc(C(F)(F)F)cn2)c1 0.77

Report its IC50 with GSK3α (Homo sapiens) as the test system: O=C(Nc1cnccc1C1=CCCCC1)c1ccnc(Nc2ccc(C(F)(F)F)cn2)c1 1.4

Report its IC50 with GSK3α (Homo sapiens) as the test system: N#Cc1ccc(Nc2cc(C(=O)Nc3cnccc3OCC(F)(F)F)ccn2)nc1 0.62

Report its IC50 with GSK3α (Homo sapiens) as the test system: COc1ccc(Nc2cc(C(=O)Nc3cncc(-c4ccccc4F)c3)ccn2)nc1 1.8

Report its IC50 with GSK3α (Homo sapiens) as the test system: NC(=O)c1ccc(Nc2cc(C(=O)Nc3cncc(-c4ccccc4F)c3)ccn2)nc1 7.6

Report its IC50 with GSK3α (Homo sapiens) as the test system: O=C(Nc1cnccc1N1CCCCC1)c1ccnc(Nc2ccc(C(F)(F)F)cn2)c1 0.15

Report its IC50 with GSK3α (Homo sapiens) as the test system: CCOc1ccncc1NC(=O)c1ccnc(Nc2ccccn2)c1 2.8

Report its IC50 with GSK3α (Homo sapiens) as the test system: O=C(Nc1cncc(-c2ccccc2F)c1)c1ccnc(Nc2ccc(F)cn2)c1 3

Report its IC50 with GSK3α (Homo sapiens) as the test system: CC(O)(c1cnncc1NC(=O)c1ccnc(Nc2ccc(C(F)(F)F)cn2)c1)C1CC1 (stereo not drawn) 0.94

Report its IC50 with GSK3α (Homo sapiens) as the test system: O=C(Nc1cnccc1-c1ccccc1)c1ccnc(Nc2ccc(Cl)cn2)c1 0.39

Report its IC50 with GSK3α (Homo sapiens) as the test system: O=C(Nc1cnc(Cl)cc1-c1ccccc1)c1ccnc(Nc2ccc(C(F)(F)F)cn2)c1 29

Report its IC50 with GSK3α (Homo sapiens) as the test system: N#Cc1cnn(-c2cncc(NC(=O)c3ccnc(Nc4cccc(C(F)(F)F)n4)c3)c2)c1 2.2

Report its IC50 with GSK3α (Homo sapiens) as the test system: O=C(Nc1cnc(F)cc1C1(C2CC2)OCCO1)c1ccnc(Nc2ccc(C(F)(F)F)cn2)c1 0.03

Report its IC50 with GSK3α (Homo sapiens) as the test system: O=C(Nc1cn[nH]c1-c1ccccc1)c1ccnc(Nc2ccc(C(F)(F)F)cn2)c1 20

Report its IC50 with GSK3α (Homo sapiens) as the test system: O=C(Nc1ccnnc1)c1ccnc(Nc2ccc(C(F)(F)F)cn2)c1 25

Report its IC50 with GSK3α (Homo sapiens) as the test system: O=C(Nc1cnccc1N1CCC(F)(F)CC1)c1ccnc(Nc2ccc(C(F)(F)F)cn2)c1 0.49

// provenance: patent US9718804B2
